- Test system: bovine taste receptor cell membranes (taste receptors) with transducin
- PROCEDURE_TEXT: G protein activation assay (trypsin sensitivity): activation of transducin by bitter tastant plus taste membranes
- Assay type: biochemical, Bovine (Bos primigenius)
- CONDITION_DESCRIPTION: DEN 5.0 mM; test compound 5.0 mM; FIG. 2
- Description: Taste receptor is contacted with gustducin or transducin and tastant, in the presence or absence of test inhibitor, under conditions suitable for activation of the G-protein present. […] In specific non-limiting embodiments, a subunits of transducin or gustducin may be combined with βγ subunits prior to this step, as set forth above. […] In preferred embodiments, activation is assessed by a trypsin digestion assay. […]
PARAMETER_MEASURED: inhibition of taste membrane-dependent activation of transducin by DEN (AMP analogues)

Nc1ncnc2c1ncn2[C@@H]1O[C@H](C(=O)O)[C@@H](O)[C@H]1O [ACA, adenosine 5′-carboxylate] | not inhibited
Cn1c(=O)c2c(ncn2C)n(C)c1=O [CAF, caffeine, reference compound] | not inhibited

The measured values listed here are drawn from patent USRE40594E1.
